ASSAY TEXT: Permeability of compound by PAMPA-BBB assay
Format: ADME
Below is a list of entries, each paired with its recorded Papp value.
MEASURED ATTRIBUTE: Papp (×10⁻⁶ cm/s)

1. Cl.Oc1ccc2cc(-c3ncc[nH]3)oc2c1: 0.1
2. Cl.c1ccc2oc(-c3ncc[nH]3)cc2c1: 13.6
3. Brc1ccc2oc(-c3ncc[nH]3)cc2c1.Cl: 20.3
4. CCn1ccnc1-c1cc2cc(OC)ccc2o1.Cl: 12.4
5. Cl.Cn1ccnc1-c1cc2ccccc2o1: 17.4

* * *

Below is a list of entries, each paired with its recorded pKi value.
MEASURED TARGET: Adrenergic receptor alpha-2 (Homo sapiens, UniProt P08913+P18825+P18089)
Sequence (P08913 whole entry): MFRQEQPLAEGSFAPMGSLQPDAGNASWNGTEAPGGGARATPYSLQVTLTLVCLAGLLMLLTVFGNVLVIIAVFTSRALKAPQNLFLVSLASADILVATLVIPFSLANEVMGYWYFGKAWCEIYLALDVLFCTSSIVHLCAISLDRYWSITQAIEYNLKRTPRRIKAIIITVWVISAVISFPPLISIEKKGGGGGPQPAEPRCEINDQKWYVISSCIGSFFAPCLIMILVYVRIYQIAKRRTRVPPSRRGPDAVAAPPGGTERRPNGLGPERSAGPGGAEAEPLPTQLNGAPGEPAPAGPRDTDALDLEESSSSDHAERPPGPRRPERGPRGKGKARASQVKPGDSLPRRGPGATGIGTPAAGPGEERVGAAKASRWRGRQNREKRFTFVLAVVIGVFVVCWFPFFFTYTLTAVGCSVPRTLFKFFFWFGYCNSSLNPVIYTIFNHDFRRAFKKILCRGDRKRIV
Sequence (P18825 whole entry): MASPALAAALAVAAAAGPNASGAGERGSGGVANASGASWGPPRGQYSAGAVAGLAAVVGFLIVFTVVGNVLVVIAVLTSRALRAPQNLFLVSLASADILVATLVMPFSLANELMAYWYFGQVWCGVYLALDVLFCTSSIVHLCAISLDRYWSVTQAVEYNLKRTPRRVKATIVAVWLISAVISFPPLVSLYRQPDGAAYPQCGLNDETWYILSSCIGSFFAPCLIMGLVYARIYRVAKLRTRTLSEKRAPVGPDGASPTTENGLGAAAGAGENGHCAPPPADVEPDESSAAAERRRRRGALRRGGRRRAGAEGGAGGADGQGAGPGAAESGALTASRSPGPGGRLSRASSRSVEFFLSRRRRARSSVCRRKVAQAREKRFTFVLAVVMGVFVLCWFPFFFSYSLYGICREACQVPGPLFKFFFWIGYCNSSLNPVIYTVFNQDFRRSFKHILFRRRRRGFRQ
Sequence (P18089 whole entry): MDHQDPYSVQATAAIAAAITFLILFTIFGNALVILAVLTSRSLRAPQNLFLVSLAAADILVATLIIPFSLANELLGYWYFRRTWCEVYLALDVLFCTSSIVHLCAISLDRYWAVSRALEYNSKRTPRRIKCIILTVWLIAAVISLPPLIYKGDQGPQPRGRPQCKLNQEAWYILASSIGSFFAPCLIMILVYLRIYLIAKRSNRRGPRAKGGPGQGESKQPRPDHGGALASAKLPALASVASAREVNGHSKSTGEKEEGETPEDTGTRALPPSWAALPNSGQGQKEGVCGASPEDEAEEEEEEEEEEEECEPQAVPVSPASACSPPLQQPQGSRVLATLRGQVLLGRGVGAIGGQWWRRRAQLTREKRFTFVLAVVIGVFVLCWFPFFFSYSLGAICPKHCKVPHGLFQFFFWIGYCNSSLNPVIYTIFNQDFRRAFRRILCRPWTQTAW
ASSAY TEXT: Displacement of [3H]-RX821002 from adrenergic alpha 2 receptor in post-mortem human brain frontal cortex membrane measured after 30 mins by liquid scintillation counting spectrometry
Type: cell membranes
MEASURED ATTRIBUTE: pKi

1. COc1ccc2oc(-c3ncc[nH]3)cc2c1.Cl: 3.94
2. COc1ccc2cc(-c3ncc[nH]3)oc2c1.Cl: 3.01
3. c1ccc2oc(C3=NCCN3)cc2c1: 4.58
4. Cl.Oc1ccc2oc(-c3ncc[nH]3)cc2c1: 3.84
5. CCn1ccnc1-c1cc2ccccc2o1.Cl: 3.77
6. Cl.c1ccc2oc(-c3ncc[nH]3)cc2c1: 3.18
7. CCn1ccnc1-c1cc2ccc(OC)cc2o1.Cl: 3.17
8. Cl.Cn1ccnc1-c1cc2ccccc2o1: 3.75
9. Cl.Oc1ccc2cc(-c3ncc[nH]3)oc2c1: 3.76
